Target: T1, TrKA receptor protein coated in ELISA (Examples 11 and 16) (human, UniProt P04629 33-423, limits assumed)
T1 construct: also called Human-TrKA
T1 sequence (P04629 33-423 limits assumed): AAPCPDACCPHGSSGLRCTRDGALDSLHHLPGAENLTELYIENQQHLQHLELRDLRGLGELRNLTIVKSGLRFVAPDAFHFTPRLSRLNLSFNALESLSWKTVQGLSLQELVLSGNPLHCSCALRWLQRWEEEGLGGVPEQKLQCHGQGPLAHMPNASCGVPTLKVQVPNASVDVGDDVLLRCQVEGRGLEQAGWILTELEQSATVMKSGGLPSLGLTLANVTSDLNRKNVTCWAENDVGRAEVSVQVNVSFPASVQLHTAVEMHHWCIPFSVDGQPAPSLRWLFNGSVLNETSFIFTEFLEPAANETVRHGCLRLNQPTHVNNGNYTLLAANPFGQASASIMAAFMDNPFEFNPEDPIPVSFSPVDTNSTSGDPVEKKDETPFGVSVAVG
Test: ELISA plateau, antibody up to 20 µg/mL on TrKA
Consider the following binders and their measured OD450 readings.
Observed property: OD450

Binder	Observed property	Assay value
2A5 chimeric antibody (antibody, human IgG4 S228P, kappa, F234A L235A, V domains shown, expressed in CHO cells) VH: EVQLQQSGPELVKPGASMKISCKASGYSFTGYTMNWVKQSHGKNLEWIGLINPYNGGTNYNQKFKGKATLTVDKSSSTAYMELLSLTSEDSAVYYCAFSYYGSRGFYFDYWGQGTTLTVSS VL: QIVLTQSPALMSASPGEKVTMTCSATSSVSYIYWYQQKPRSSPKPWIYLTSNLASGVPARFSGSGSGTSYSLTISSMEAEDAATYYCQQWSSNPPTFGGGTKLEIKR	OD450	~3 OD450
1B9 chimeric antibody (antibody, human IgG4 S228P, kappa, F234A L235A, V domains shown, expressed in CHO cells) VH: QVHLQQSGAELMKPGASVKISCKATGYTFNIYWIDWVKQRPGHGLEWIGEILPGSGNTHYNENFKGKATMTADTSSNTAYMQLTSLTSEDSAVYYCARTDGRGYFDYWGQGTTLTVSS VL: DIVLTQSPASLVVSLGQRATISCRTSKSVSSSAYSYMHWYQQKPGQPPKVLIYLASNLESGVPARFSGSGSGTDFTLNIHPVEEEDAATYYCQHSRELPFTFGSGTKLEIKR	OD450	~3 OD450
23E12 chimeric antibody (antibody, human IgG4 S228P, kappa, F234A L235A, V domains shown, expressed in CHO cells) VH: QVQLQQSGAELVRPGTSVKISCKASGYAFTNYWLGWMKQRPGHGLEWIGDFYPRTGNTFYNENFKGKVTLTADKSSNTAYMQLSSLTSEDSAVYLCARAGTGFDYWGQGTTLTVSS VL: SIVMTQSPKSMSMSVGERVTLSCKASENVGGYVSWYQQKPDQSPKLLIYGASSRHTGVPDRFTGSGSETDFTLTISSVQAEDLAAYHCGQNYIYPFTFGGGTKLEIKR	OD450	~3 OD450
2008 chimeric antibody (antibody, human IgG4 S228P, kappa, F234A L235A, V domains shown, also called 20C8) VH: EVLLQQSGPELVKPGASMKISCKASVYSFTAYTMNWVKQSHGKNLEWIGLINPHNGGTRYNQKFKGKATLTLDKSSSTAYMDLLSLTSEDSAVYYCAISRYGSSSFYFDVWGAGTTVAVSS VL: QIVLSQSPAILSASPGEKVTMTCRASSSISYMHWYQQKPGSSPKPWISATSNLASGVPARFSGSGSGTSYSLTISGVEAEDAATYYCQQWSSNPPTFGGGTNLEIKR	OD450	~3 OD450
4H4 chimeric antibody (antibody, human IgG4 S228P, kappa, F234A L235A, V domains shown, expressed in CHO cells) VH: EVQLQQSGPELVKPGASMKISCKASGYSFTGYTMNWVKQSHGKNLEWIGLINPYNGGTRYNQKFKGKATLTVDKSSSTAYMELLSLTSEDSAVYYCASSSYRNDGNWYFDVWGAGTTVTVSS VL: DIVMTQSPAIMSASPGEKVTMTCSASSSVSYMHWYQQKSGTSPKRWIYDTSKLASGVPARFSGSGSGTSYSLTISSMETEDAATYYCQQWSSNPPTFGGGTKLELKR	OD450	~3 OD450
21E5 chimeric antibody (antibody, human IgG4 S228P, kappa, F234A L235A, V domains shown, expressed in CHO cells) VH: QVQLQQSGAELMKPGASMKISCKATGYTFSTYWIEWVKQRPGHGLEWIGENLPGRHITNYNEKFKGKATFTADTSSNTAYMQLSSLTSEDSAVYYCARGRGTYYFDYWGQGTPLTVSS VL: DIVMTQAAFSTPVTLGTSASISCRSSQSLLHSNGITYLYWYLQKPGQSPQLLIYQMSNLASGVPDRFSSSGSGTDFTLRISRVEAEDVGVYYCAQNLEFPFTFGSGTKLEIKR	OD450	~3 OD450
27H3 chimeric antibody (antibody, human IgG4 S228P, kappa, F234A L235A, V domains shown, expressed in CHO cells) VH: QVQLQQSGAELMKPGASVKISCKTTGYRFSSYWIEWVKQRPGHGLEWLGEILPGRGIINYNENFRGKATFTADTSSNTAYVQLSSLTSEDSAVYFCARTDPPYFGVWGAGTTVTVSS VL: QAVVTQESALTTSPGETVTLTCRSSTGAVTISNYANWVQEKPDHLFTGLIGGTNNRPPGVPARFSGSLIGDKAALTITGAQTEDEAIYFCVLWYSNHWVFGGGTKLTVLR	OD450	~3 OD450
